Hey, just so you know, these numbers are from patent US7649093B2.

The following compounds are shown together with reported melting point values.

Would you mind telling me what melting point value was observed for CCCCc1cc2ccccc2c(Oc2ccc(/C=C/C(=O)O)cc2)c1-c1ccc(F)cc1 [Example 24] ? 169 to 170 °C

Would you mind telling me what melting point value was observed for O=C(O)/C=C/c1ccc(Oc2c(-c3ccccc3)c(C(F)(F)F)cc3ccccc23)cc1 [Example 27] ? 210 to 211 °C

Would you mind telling me what melting point value was observed for CCCc1cc2cc(O)ccc2c(Oc2ccc(/C=C/C(=O)O)cc2)c1-c1ccccc1 [Example 16] ? 120 to 122 °C

Would you mind telling me what melting point value was observed for O=C(O)/C=C/c1ccc(Oc2c(-c3ccccc3)c(C3CC3)cc3cc(O)ccc23)cc1 [Example 22] ? 242 to 243 °C

Would you mind telling me what melting point value was observed for CC(C)Cc1cc2cc(O)ccc2c(Oc2ccc(/C=C/C(=O)O)cc2)c1-c1ccccc1 [Example 17] ? 126 to 128 °C

New cases:
Would you mind telling me what melting point value was observed for CCCCc1cc2cc(O)ccc2c(Oc2ccc(/C=C/C(=O)O)cc2)c1-c1ccccc1 [Example 14] ? 128 to 130 °C

Would you mind telling me what melting point value was observed for CCCCCc1cc2cc(O)ccc2c(Oc2ccc(/C=C/C(=O)O)cc2)c1-c1ccccc1 [Example 18] ? 110 to 113 °C

Would you mind telling me what melting point value was observed for O=C(O)c1ccc(Oc2c(-c3ccc(O)cc3)c(C(F)(F)F)cc3ccccc23)cc1 [Example 28] ? 244 to 245 °C

Would you mind telling me what melting point value was observed for CC(C)c1cc2cc(O)ccc2c(Oc2ccc(/C=C/C(=O)O)cc2)c1-c1ccccc1 [Example 13] ? 198 to 199 °C

Would you mind telling me what melting point value was observed for Cc1cc2cc(O)ccc2c(Oc2ccc(/C=C/C(=O)O)cc2)c1-c1ccc(O)cc1 [Example 10] ? 162 to 164 °C

Would you mind telling me what melting point value was observed for CCc1cc2cc(O)ccc2c(Oc2ccc(/C=C/C(=O)N3CCN(C)CC3)cc2)c1-c1ccccc1 [Example 12] ? 195 to 196 °C

Would you mind telling me what melting point value was observed for CCCCc1cc2ccccc2c(Oc2ccc(/C=C/C(=O)O)cc2)c1-c1ccccc1 [Example 26] ? 160 to 161 °C

Would you mind telling me what melting point value was observed for Cc1cc2ccccc2c(Oc2ccc(/C=C/C(=O)O)cc2)c1-c1ccccc1 [Example 15] ? 224 to 225 °C
